system: Saccharomyces cerevisiae BY4741 SeMeCo community; assay: z-score of subpopulation abundance vs DMSO median, subpopulation auxotrophic for LUM; higher = larger share of this subpopulation than in DMSO controls; details: 10 µM; 24 h; SM minimal medium; subpopulation (auxotrophy): LUM
Structures can show the parent of a compound that is named as a salt.
Could you please report measured z-score of subpopulation abundance for the items listed next?
Returns: the value as a bare number; no unit string appended.

Reported z-score of subpopulation abundance for CCC1(C)CC(=O)NC1=O (stereo not drawn) [Ethosuximide] : what is it?
1.11

Reported z-score of subpopulation abundance, compound CCCCCCCCCCCC(=O)O [Lauric Acid] : ____
-0.68

Can you look up the measured z-score of subpopulation abundance of CCN1CCC[C@H]1CNC(=O)c1cc(S(N)(=O)=O)ccc1OC [Levosulpiride] for me?
0.3

Endpoint output: z-score of subpopulation abundance of C[C@@H](O)[C@H]1C(=O)N2C(C(=O)[O-])=C(SC3Cn4cnc[n+]4C3)[C@H](C)[C@H]12 (stereo partly drawn) [Biapenem] . Value?
-0.49

Form field: reported z-score of subpopulation abundance of CC1=Nc2ccc(Cl)cc2S(=O)(=O)N1 [Diazoxide]
-0.9

What does the data say about its z-score of subpopulation abundance? Entry: O=C(O)c1cc(=O)c2c(OCC(O)COc3cccc4oc(C(=O)O)cc(=O)c34)cccc2o1 [Disodium Cromoglycate]
-0.55

Could you tell me which z-score of subpopulation abundance is on file for Cc1nc(=O)c2cc(CN(C)c3ccc(C(=O)N[C@@H](CCC(=O)O)C(=O)O)s3)ccc2[nH]1 [Raltitrexed] ?
-2.16

Need z-score of subpopulation abundance, item CCCCCC(=O)O[C@]1(C(C)=O)CC[C@H]2[C@@H]3CCC4=CC(=O)CC[C@]4(C)[C@H]3CC[C@@]21C [Hydroxyprogesterone caproate]
1.15

May I ask what z-score of subpopulation abundance has been recorded for CN[C@@H]1[C@@H](O)[C@@H](O[C@@H]2[C@@H](O)[C@H](O[C@H]3OC(CN)=CC[C@H]3N)[C@@H](N)C[C@H]2N)OC[C@]1(C)O [Sisomicin sulfate] ?
1.13

Consider the compound shown here: COc1cc(Cc2cnc(N)nc2N)cc(OC)c1OC [Trimethoprim] What is its recorded z-score of subpopulation abundance?
0.27

Give its z-score of subpopulation abundance value. Item: CCN(CC)CCOc1ccc(C(=C(Cl)c2ccccc2)c2ccccc2)cc1 [Clomifene citrate]
1.75

Entry NC[C@@H]1O[C@H](O[C@H]2[C@@H](O)[C@H](O[C@@H]3[C@@H](O)[C@H](N)C[C@H](N)[C@H]3O[C@H]3O[C@H](CN)[C@@H](O)[C@H](O)[C@H]3N)O[C@@H]2CO)[C@H](N)[C@@H](O)[C@@H]1O [Neomycin sulfate] : reported z-score of subpopulation abundance = ?
-0.31

Give the measured z-score of subpopulation abundance of CCC(C)(C)c1ccc(CC(C)CN2C[C@@H](C)O[C@@H](C)C2)cc1 (stereo partly drawn) [Amorolfine HCl] .
3.94

Quick check: z-score of subpopulation abundance of CN(C)C(=O)COC(=O)Cc1ccc(OC(=O)c2ccc(NC(=N)N)cc2)cc1 [Camostat Mesilate] ?
-0.84

May I ask what z-score of subpopulation abundance has been recorded for CCN[C@@H]1C[C@H](N)[C@@H](O[C@H]2OC(CN)=CC[C@H]2N)[C@H](O)[C@H]1O[C@H]1OC[C@](C)(O)[C@H](NC)[C@H]1O [Netilmicin Sulfate] ?
0.72

Need z-score of subpopulation abundance, item Nc1nc(O)c2ncn(CCC(CO)CO)c2n1 [Penciclovir]
-0.73

So what does the record say about z-score of subpopulation abundance for COCCOC(=O)C1=C(C)NC(C)=C(C(=O)OC(C)C)C1c1cccc([N+](=O)[O-])c1 (stereo not drawn) [Nimodipine] ?
0.35

Item under review: CC1(C)S[C@@H]2[C@H](NC(=O)[C@H](N)c3ccccc3)C(=O)N2[C@H]1C(=O)OCOC(=O)[C@@H]1N2C(=O)C[C@H]2S(=O)(=O)C1(C)C [Sultamicillin] . Reported z-score of subpopulation abundance?
1.13

Which z-score of subpopulation abundance reading was recorded for the compound CN(C)CCC=C1c2ccccc2C=Cc2ccccc21 [Cyclobenzaprine HCl] ?
-0.09

Which z-score of subpopulation abundance is listed for CCOC(=O)C1=C(COCCN)NC(C)=C(C(=O)OC)C1c1ccccc1Cl (stereo not drawn) [Amlodipine Besylate] ?
-4.74

May I ask what z-score of subpopulation abundance has been recorded for CCN(CC)CCOc1ccc2c(c1)C(=O)c1cc(OCCN(CC)CC)ccc1-2 [Tilorone dihydrochloride] ?
-0.39

// z-score of subpopulation abundance lookup, key: O=C(O)Cc1ccccc1Nc1c(Cl)cccc1Cl [Diclofenac Diethylamine]
-1.21

Value lookup for z-score of subpopulation abundance; key = CN1C2CCC1CC(OC(=O)C(O)c1ccccc1)C2 (stereo not drawn) [Homatropine Bromide]
0.09

Data credit: the supplement of paper PMC8975748
